The measured values listed here are drawn from paper PMC8007111.

measured_on: hM3 mAChR (Homo sapiens)
Construct: expressed in transfected cells; host or cells: CHO-K1 (membrane preparation)
Sequence (P20309 whole entry): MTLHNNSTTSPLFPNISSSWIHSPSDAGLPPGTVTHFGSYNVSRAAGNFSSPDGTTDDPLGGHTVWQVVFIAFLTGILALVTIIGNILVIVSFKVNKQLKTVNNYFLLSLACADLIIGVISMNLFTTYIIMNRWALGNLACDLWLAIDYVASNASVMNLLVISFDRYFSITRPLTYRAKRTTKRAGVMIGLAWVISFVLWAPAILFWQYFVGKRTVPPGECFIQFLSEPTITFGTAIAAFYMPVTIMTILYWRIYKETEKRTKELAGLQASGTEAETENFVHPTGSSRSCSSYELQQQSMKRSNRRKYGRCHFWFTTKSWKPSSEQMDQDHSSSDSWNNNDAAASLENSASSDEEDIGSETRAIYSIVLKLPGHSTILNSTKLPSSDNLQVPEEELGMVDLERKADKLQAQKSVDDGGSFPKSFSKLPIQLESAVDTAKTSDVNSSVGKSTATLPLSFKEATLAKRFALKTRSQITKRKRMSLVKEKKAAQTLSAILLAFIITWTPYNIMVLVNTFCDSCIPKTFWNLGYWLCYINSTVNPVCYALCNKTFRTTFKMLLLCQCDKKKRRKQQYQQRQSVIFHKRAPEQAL
protocol_details: [3H]NMS inhibition radioligand binding, hM3 in CHO-K1 cell membranes
condition_description: [3H]NMS, CHO-K1 cell membranes; mean ± S.E.M.
property_label: pKi hM3

| compound | measured_on | pKi hM3 |
| --- | --- | --- |
| C[N+](C)(C)C[C@@H]1COC[C@](c2ccccc2)(C2CCCCC2)O1 [(2R,6R)-(+)-3b] | hM3 mAChR (Homo sapiens) | 7.51 ± 0.12 |
| C[N+](C)(C)C[C@@H]1CO[C@H](c2ccc(Sc3ccccc3)cc2)CO1.[I-] (relative stereo) [15a] | hM3 mAChR (Homo sapiens) | 6.01 ± 0.11 |
| C[N+](C)(C)C[C@@H]1COC[C@@H](c2ccc(-c3ccccc3)cc2)O1.[I-] (relative stereo) [4b] | hM3 mAChR (Homo sapiens) | <5 |

Now look at this one.
Looking up C[N+](C)(C)C[C@@H]1CO[C@@H](c2ccc(Cc3ccccc3)cc2)CO1.[I-] (relative stereo) [14b] , I found its pKi hM3 recorded as <5
